# Tested on: human recombinant adrenergic α1D receptor (Homo sapiens)
# Construct: expressed in transfected cells; host or cells: HEK-293 cells
# Assay notes: Adrenergic α1D radioligand binding assay ([3H]Prazosin)
# Test conditions: 0.1 μM compound; read-out: Percentage inhibition of ligand binding, Adrenergic α1D
Measurement type: inhibition at 0.1 µM (%)

Known inhibition at 0.1 µM results, listed for orientation:
Cc1cc(C#Cc2nccs2)c2[nH]c3c(c2c1)CN(C)CC3 [A16]: -2
Cc1ccc(C#Cc2cc(Cl)cc3c4c(n(C)c23)CCN(C)C4)cn1 [A18]: 34
Cc1cc(/C=C/c2ccc(C)nc2)c2c(c1)c1c(n2C)CCN(C)C1 [A14]: -9
C/C(=C\c1cc(C)cc2c3c(n(C)c12)CCN(C)C3)c1ccc(C)nc1 [A15]: 5
Cc1cc2c3c(c1)c1c(n3CC(C)(c3ccc(C)nc3)OC(C)C2)CCN(C)C1 (centres unmarked) [B160]: 15

1: Cc1cc(C#Cc2cccs2)c2[nH]c3c(c2c1)CN(C)CC3 [A8]
2: C/C(=C\c1cc(C)cc2c3c(n(C)c12)CCN(C)C3)c1ccncc1 [A11]
3: Cc1cc(C#Cc2ccncc2)c2c(c1)c1c(n2C)CCN(C)C1 [A17]
**Query** Sort low-to-high on inhibition at 0.1 µM, please. Answer format: the labels, ordered as requested.
**Result** 3, 2, 1
(3: -5%, 2: -1%, 1: 3%)

* * *

# Tested on: human recombinant adrenergic α1D receptor (Homo sapiens, UniProt P25100)
# Construct: expressed in transfected cells; host or cells: HEK-293 cells
# Sequence (P25100 whole entry): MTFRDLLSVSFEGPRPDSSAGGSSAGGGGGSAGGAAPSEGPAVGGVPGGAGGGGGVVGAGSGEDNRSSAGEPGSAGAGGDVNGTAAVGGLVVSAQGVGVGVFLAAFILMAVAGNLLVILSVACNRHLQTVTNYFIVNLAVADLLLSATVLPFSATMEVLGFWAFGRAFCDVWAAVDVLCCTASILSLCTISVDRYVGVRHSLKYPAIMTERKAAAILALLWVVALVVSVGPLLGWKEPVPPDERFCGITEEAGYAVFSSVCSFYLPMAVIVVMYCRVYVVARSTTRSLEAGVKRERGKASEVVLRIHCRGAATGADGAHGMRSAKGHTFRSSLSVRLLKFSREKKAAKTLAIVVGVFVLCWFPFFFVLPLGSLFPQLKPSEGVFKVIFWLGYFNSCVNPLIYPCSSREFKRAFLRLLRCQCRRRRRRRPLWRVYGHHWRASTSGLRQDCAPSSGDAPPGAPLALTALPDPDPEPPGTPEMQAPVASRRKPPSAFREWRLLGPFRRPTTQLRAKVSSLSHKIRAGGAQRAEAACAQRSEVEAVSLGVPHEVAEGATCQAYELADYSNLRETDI
# Assay notes: Adrenergic α1D radioligand binding assay ([3H]Prazosin)
# Test conditions: 0.1 μM compound; read-out: Percentage inhibition of ligand binding, Adrenergic α1D
Measurement type: inhibition at 0.1 µM (%)

Cc1cc2c3c(c1)c1c(n3CC(C)(c3ccc(C)nc3)OC2C)CCN(C)C1 (stereo not drawn) [B161]: 1

1: Cc1cc(CCc2ccc(C)nc2)c2c(c1)c1c(n2C)CCN(C)C1 [A13]
2: Cc1cc2c3c(c1)c1c(n3C[C@](C)(c3ccncc3)O[C@H]2C)CCN(C)C1 [B163]
3: Cc1ccc2c(c1)c1c3n2CC(c2ccncc2)=CCC3(C)CN(C)C1 (stereo not drawn) [D11]
4: Cc1cc2c3c(c1)c1c(n3C[C@@](C)(c3ccncc3)O[C@H]2C)CCN(C)C1 [B162]
5: Cc1ccc2c(c1)c1c3n2C(c2ccccc2)CCC3(C)CN(C)C1 (stereo not drawn) [D12]
**Query** Sort low-to-high on inhibition at 0.1 µM, please. Answer format: the labels, ordered as requested.
**Result** 3, 5, 4, 1, 2
